Entry source: the supplement of paper PMC9170038

# Tested on: K4 kissing-loop RNA reporter;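 further: bound reporter read as fluorescence of individual clusters on recovered sequencing chips by microscopy, with normalized cluster intensities fitted with a binding model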
# Test protocol: apparent KD of K4 kissing-loop reporter; higher = weaker reporter binding
# Applied conditions: Eterna round: R107; input ligand: theophylline 20 uM
Measured quantity: apparent KD of K4 kissing-loop reporter (nM)
Entry rule: numbers only, all in nM.

Some sequences with known apparent KD of K4 kissing-loop reporter results, for comparison:
- Sequence string: "UGAUACCAGACGGCCGCCACUCCCGUAAGUCAAAGACUUACGAAGAGAGUUAUCCAGUGAUGUUGGAGGACCGGGUCUGGUAUCU [FiskerMod 14 - Jieux - Exclusion - Tryptophan B]"
  apparent KD of K4 kissing-loop reporter [nM]: 199
- Sequence string: "CCCAAAAUAUGCAGUGAUGUUGCAACUGAUACCAGUAUCGAAAGAUACCCUUGGCAGCGGAAAACCGCUACGUAAUUUAAAAGGG [Ex Theophylline A K4 18]"
  apparent KD of K4 kissing-loop reporter [nM]: 340
- Sequence string: "AGAUGACACCGAGGAUAUCCUAAUAUGGGUGAUGUUAGCGAUGUUGAAGGUGUAGUGAUGUUAUGCGGAGAAGGCGGUGUUGUUU [BDazzled - #21 - Exc. FMN B]"
  apparent KD of K4 kissing-loop reporter [nM]: 139
- Sequence string: "CCUAGUCGGAUACUCAAUCCAAUGCGAGAUACCAGCGGUCUUACGCGCCCUUGGCAGCUCAUAAUGAUGAACCAGUGAUGUUGGG [theeternabot_sameState_KL_Theo_A_40]"
  apparent KD of K4 kissing-loop reporter [nM]: 446

State its apparent KD of K4 kissing-loop reporter on K4 kissing-loop RNA reporter: UAGAUGUUGUAAGAUAUUGAUAGUCGGGAAGGAGCGCUCACAAUAGCAGGUAGGUCGCCCGACAGUGUUAGGAGUGAUGUUCCUU [7.)]
121
